The origin of these recorded values is patent US20150174144A1.

# assay_info: in vivo
# test_conditions: rat, iv, 1 mg/kg
test_readout: half-life (min)
One number for each entry, in min.

Entry CN(C)c1ccc(O)c2c1C[C@H]1C[C@H]3[C@H](N(C)C)C(O)=C(C(N)=O)C(=O)[C@@]3(O)C(O)=C1C2=O [Minocycline, minocycline, reference compound] , half-life reported as 216

----------
# assay_info: Bioavailability in the CNS of the mouse
# test_conditions: brain, ip, 10 mg/kg
test_readout: concentration at 0.5 hr (ng/g)
Give bare numbers, in ng/g.

Entry CN(C)c1ccc(O)c2c1C[C@H]1C[C@H]3[C@H](N(C)C)C(O)=C(C(N)=O)C(=O)[C@@]3(O)C(O)=C1C2=O [Minocycline, minocycline, reference compound] , concentration at 0.5 hr reported as 138

----------
# assay_info: in vivo
# test_conditions: monkey, po, 5 mg/kg
Kindly state AUC for each of the entries shown.
Numbers only, in µM·h.

{"molecule": "CCc1cc(N(C)C)c2c(c1O)C(=O)C1=C(O)[C@]3(O)C(=O)C(C(N)=O)=C(O)[C@@H](N(C)C)[C@@H]3C[C@@H]1C2 [Compound 1]", "test_readout": "AUC", "unit_spec": "µM·h", "observed_measurement": 46.7}

Next, consider the following molecule.
Entry CN(C)c1ccc(O)c2c1C[C@H]1C[C@H]3[C@H](N(C)C)C(O)=C(C(N)=O)C(=O)[C@@]3(O)C(O)=C1C2=O [Minocycline, minocycline, reference compound] , AUC reported as 44.6

----------
# assay_info: Bioavailability in the CNS of the mouse
# test_conditions: brain/plasma, ip, 10 mg/kg
test_readout: Kp at 2 hr
Numbers only.

Entry CN(C)c1ccc(O)c2c1C[C@H]1C[C@H]3[C@H](N(C)C)C(O)=C(C(N)=O)C(=O)[C@@]3(O)C(O)=C1C2=O [Minocycline, minocycline, reference compound] , Kp at 2 hr reported as 0.508

----------
# assay_info: in vivo
# test_conditions: rat, iv, 5 mg/kg
test_readout: AUC (µM·h)
Numbers only, in µM·h.

Entry `CCc1cc(N(C)C)c2c(c1O)C(=O)C1=C(O)[C@]3(O)C(=O)C(C(N)=O)=C(O)[C@@H](N(C)C)[C@@H]3C[C@@H]1C2` , AUC reported as 54.4

----------
# assay_info: in vivo
# test_conditions: monkey, iv, 5 mg/kg
test_readout: AUC (µM·h)
Answers are plain numbers, in µM·h.

// batch mode: one AUC value per listed entry
1. CN(C)c1ccc(O)c2c1C[C@H]1C[C@H]3[C@H](N(C)C)C(O)=C(C(N)=O)C(=O)[C@@]3(O)C(O)=C1C2=O [Minocycline, minocycline, reference compound]
2. CCc1cc(N(C)C)c2c(c1O)C(=O)C1=C(O)[C@]3(O)C(=O)C(C(N)=O)=C(O)[C@@H](N(C)C)[C@@H]3C[C@@H]1C2

[55.8, 70]
